Target: Aminopeptidase N (Sus scrofa, UniProt P15145)
Sequence (P15145 whole entry): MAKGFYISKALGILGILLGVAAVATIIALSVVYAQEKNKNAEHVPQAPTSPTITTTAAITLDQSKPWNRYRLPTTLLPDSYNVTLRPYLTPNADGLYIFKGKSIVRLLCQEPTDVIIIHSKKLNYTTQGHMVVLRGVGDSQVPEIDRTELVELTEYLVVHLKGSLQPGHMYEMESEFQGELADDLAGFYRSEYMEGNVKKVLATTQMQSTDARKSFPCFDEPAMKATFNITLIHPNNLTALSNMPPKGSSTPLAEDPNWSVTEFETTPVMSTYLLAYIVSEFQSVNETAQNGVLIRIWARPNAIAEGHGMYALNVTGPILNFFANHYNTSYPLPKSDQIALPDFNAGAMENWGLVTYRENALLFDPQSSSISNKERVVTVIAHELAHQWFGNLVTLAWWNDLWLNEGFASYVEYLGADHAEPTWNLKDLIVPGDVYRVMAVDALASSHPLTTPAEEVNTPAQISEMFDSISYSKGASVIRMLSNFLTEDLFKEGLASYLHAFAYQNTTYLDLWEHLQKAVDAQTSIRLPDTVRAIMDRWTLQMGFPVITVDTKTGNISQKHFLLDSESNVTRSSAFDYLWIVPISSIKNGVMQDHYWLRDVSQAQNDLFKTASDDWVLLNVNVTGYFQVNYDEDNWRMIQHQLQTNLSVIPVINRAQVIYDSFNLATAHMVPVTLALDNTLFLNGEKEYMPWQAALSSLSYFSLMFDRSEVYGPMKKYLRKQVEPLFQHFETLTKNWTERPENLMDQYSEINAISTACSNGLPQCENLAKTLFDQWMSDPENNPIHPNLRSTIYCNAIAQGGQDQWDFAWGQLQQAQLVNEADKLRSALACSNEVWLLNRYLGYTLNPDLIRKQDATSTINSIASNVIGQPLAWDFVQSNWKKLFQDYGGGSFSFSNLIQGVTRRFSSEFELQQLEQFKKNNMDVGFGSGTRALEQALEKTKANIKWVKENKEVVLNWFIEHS
pIC50: −log10 of the molar value.
MEASURED_ENDPOINT: pIC50

Worked cases, answers included:
- COc1ccc(/C=C/C(=O)N[C@H](C)C(=O)Nc2nnc(-c3ccc([N+](=O)[O-])cc3)s2)cc1: 4.35
- COc1ccc(/C=C/C(=O)N[C@H](C)C(=O)Nc2nnc(-c3ccc(C)cc3)s2)cc1: 3.85
- C[C@@H](NC(=O)/C=C/c1ccccc1)C(=O)Nc1nnc(-c2ccc([N+](=O)[O-])cc2)s1: 4.07
- C[C@@H](NC(=O)/C=C/c1ccc(O)cc1)C(=O)Nc1nnc(-c2ccc(Cl)cc2)s1: 3.98

I: COc1ccc(/C=C/C(=O)N[C@H](C)C(=O)Nc2nnc(-c3ccccc3)s2)cc1
II: C[C@@H](NC(=O)/C=C/c1ccc(O)cc1)C(=O)Nc1nnc(-c2ccc(Br)cc2)s1
III: C[C@@H](NC(=O)/C=C/c1ccccc1)C(=O)Nc1nnc(-c2ccccc2)s1
# desc sort on pIC50 across 3 compounds Give the labels in the order requested. II, I, III
(II: 4.45, I: 3.88, III: 3.67)
